Ref: BindingDB's records for doi:10.1021/ml2001455

- system: Mitogen-activated protein kinase 14 (Homo sapiens)
- run description: Inhibition of p38alpha in human PBMC assessed as inhibition of LPS-induced IL1beta production after 16 to 18 hrs by ELISA
pIC50: −log10 of the molar value.
quantity measured: pIC50

Given the molecule O=c1ncn2nc(Sc3ccccc3)ccc2c1-c1ccc(Cl)c(Cl)c1 and test system Mitogen-activated protein kinase 14 (Homo sapiens), the measured pIC50 is < 4.70

* * *

- system: Mitogen-activated protein kinase 14 (Homo sapiens, UniProt Q16539)
- Sequence (Q16539 whole entry): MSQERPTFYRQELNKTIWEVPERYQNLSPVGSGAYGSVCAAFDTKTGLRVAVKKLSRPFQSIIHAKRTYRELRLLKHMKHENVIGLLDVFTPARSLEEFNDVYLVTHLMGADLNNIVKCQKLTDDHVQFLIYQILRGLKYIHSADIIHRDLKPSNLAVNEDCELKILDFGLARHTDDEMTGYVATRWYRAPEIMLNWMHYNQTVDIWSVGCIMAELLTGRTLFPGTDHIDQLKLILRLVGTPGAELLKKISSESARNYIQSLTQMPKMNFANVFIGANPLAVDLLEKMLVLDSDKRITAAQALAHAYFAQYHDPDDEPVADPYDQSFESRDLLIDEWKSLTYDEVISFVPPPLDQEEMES
- run description: Inhibition of p38alpha kinase using KRELVEPLTPSGEAPNQALLR as substrate for 20 mins by lactate dehydrogenase-coupled spectrophotometric assay
Answer each item with its documented IC50.

O=c1ncn2nc(Sc3ccccc3)ccc2c1-c1ccc(Cl)c(Cl)c1 has a reported IC50 of > 20 µM

COc1ccc(-c2c(=O)ncn3nc(Sc4ccccc4)ccc23)cc1 has a reported IC50 of > 20 µM
